Target sequence: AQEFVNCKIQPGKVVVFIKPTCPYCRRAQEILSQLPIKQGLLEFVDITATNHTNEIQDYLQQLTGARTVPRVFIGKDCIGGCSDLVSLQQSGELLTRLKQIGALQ
READOUT: pKd
Hey, just a heads up that pKd is the negative log base 10 of the concentration in molar.

Record excerpt, results attached:
Query: Give a short answer stating reported pKd for O=C(O)c1ccc(-n2cccn2)cc1 .
Response: 2.30

Query: Fill in pKd for record Cn1nc(C(=O)O)cc1-c1ccccc1
Response: 2.28

Query: For O=C(O)c1cc(-c2ccco2)[nH]n1 , write its pKd.
Response: 2.54

Next:
Query: For O=C(O)c1ccc(-n2cccc2)cc1 , write its pKd.
Response: 2.61

Query: State its pKd for this compound: Cn1nc(-c2ccco2)cc1C(=O)O
Response: 2.27

Query: State, in one line, measured pKd of CN1CCN(C)c2cc(CN)ccc21
Response: 2.73

Query: Give pKd for Cc1cc2ncc(C(=O)O)c(C)n2n1
Response: 2.79
